# Test system: Staphylococcus aureus
# assayDetails: Antibacterial activity against Staphylococcus aureus MTCC 1430 by serial dilution method
# Format: functional
# Design: scale not given here
measurementKind: -logMIC
Answer with the value's number alone.

Consider the worked cases shown below.
Query -logMIC on Staphylococcus aureus for COc1ccccc1NC(=O)c1ccc(OC)c(OC)c1 1.23

Query -logMIC on Staphylococcus aureus for COc1ccc(C(=O)N(CCO)CCO)cc1OC 1.21

Query -logMIC on Staphylococcus aureus for COc1ccc(C(=O)N2CCCCC2)cc1OC 1.15

Query -logMIC on Staphylococcus aureus for COc1ccc(C(=O)N2CCOCC2)cc1OC 1.08

Attention now shifts to the item below.
Query -logMIC on Staphylococcus aureus for COc1ccc(C(=O)Nc2ccccc2Cl)cc1OC 1.28

---

# System: Aspergillus niger
# assayDetails: Antifungal activity against Aspergillus niger MTCC 2425 by serial dilution method
# Assay type: functional
# Parameters: scale not given here
measurementKind: -logMIC
Answer with the value's number alone.

Query -logMIC on Aspergillus niger for CNC(=O)c1ccc(OC)c(OC)c1 1.18

***
Query -logMIC on Aspergillus niger for COc1ccc(C(=O)Oc2cccc3cccnc23)cc1OC 1.34

---

# Test system: Escherichia coli
# assayDetails: Antibacterial activity against Escherichia coli MTCC 739 by serial dilution method
# Type: functional
# Design: scale not given here
Please mark yes if the recorded -logMIC is equal to or greater than 1, and no if it falls below.

Determine whether measured -logMIC meets or exceeds 1 for COc1ccc(C(N)=O)cc1OC no

Determine whether measured -logMIC meets or exceeds 1 for COc1ccc(C(=O)Nc2ccc(Cl)cc2)cc1OC yes

Determine whether measured -logMIC meets or exceeds 1 for COc1ccc(C(=O)OCCC(C)C)cc1OC yes

Determine whether measured -logMIC meets or exceeds 1 for COc1ccc(C(=O)OC(C)C)cc1OC yes

Determine whether measured -logMIC meets or exceeds 1 for CCCNC(=O)c1ccc(OC)c(OC)c1 yes

---

# Tested on: Bacillus subtilis
# assayDetails: Antibacterial activity against Bacillus subtilis MTCC 2423 by serial dilution method
# Format: functional
# Design: unit not given here
measurementKind: -logMIC
Answer with the value's number alone.

Query: -logMIC; subject: COc1ccc(C(=O)OCCC(C)C)cc1OC 1.31

Query: -logMIC; subject: COc1ccc(C(=O)N(CCO)CCO)cc1OC 1.31

Query: -logMIC; subject: COc1ccc(C(=O)Nc2cccc([N+](=O)[O-])c2)cc1OC 1.46

Query: -logMIC; subject: CNC(=O)c1ccc(OC)c(OC)c1 1.18

Query: -logMIC; subject: CCCCCCCOC(=O)c1ccc(OC)c(OC)c1 1.35

Query: -logMIC; subject: COc1ccc(C(=O)Nc2ccccc2C)cc1OC 1.26

---

# Test system: Escherichia coli
# assayDetails: Antibacterial activity against Escherichia coli MTCC 739 by serial dilution method
# Format: functional
# experimentalConditions: Escherichia coli, MTCC 739; read-out: MIC
measurementKind: MIC (µg/mL)
Write the answer as a number in µg/mL, unit excluded.

Consider the worked cases shown below.
Query: MIC; subject: COc1ccc(C(=O)N2CCOCC2)cc1OC 17

Query: MIC; subject: CCOC(=O)c1ccc(OC)c(OC)c1 20

Query: MIC; subject: C=CCOC(=O)c1ccc(OC)c(OC)c1 18

Attention now shifts to the item below.
Query: MIC; subject: COc1ccc(C(=O)NCCO)cc1OC 19
